tested_on: CYP2C19 (Homo sapiens)
Sequence (P33261 whole entry): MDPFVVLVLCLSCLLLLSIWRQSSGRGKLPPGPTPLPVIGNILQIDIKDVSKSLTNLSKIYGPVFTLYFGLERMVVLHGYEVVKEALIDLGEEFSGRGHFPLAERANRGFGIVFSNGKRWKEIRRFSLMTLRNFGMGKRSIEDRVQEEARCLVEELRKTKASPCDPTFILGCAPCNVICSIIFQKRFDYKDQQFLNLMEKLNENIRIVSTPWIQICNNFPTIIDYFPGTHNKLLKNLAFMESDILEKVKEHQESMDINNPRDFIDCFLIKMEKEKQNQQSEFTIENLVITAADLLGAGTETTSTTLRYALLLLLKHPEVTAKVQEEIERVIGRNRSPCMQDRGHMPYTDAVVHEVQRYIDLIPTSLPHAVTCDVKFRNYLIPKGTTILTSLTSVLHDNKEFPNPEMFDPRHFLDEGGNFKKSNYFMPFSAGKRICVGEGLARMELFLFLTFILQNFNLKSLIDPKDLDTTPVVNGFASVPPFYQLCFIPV
procedure_summary: Inhibition of human CYP2C19 at 10 uM
Assay type: ADME
assay_readout: inhibition at 10 µM (%)
Numbers only, in %.

Lab note: O=C(Nc1ccc(F)cn1)c1cc[nH]n1 gave inhibition at 10 µM of 6

---

tested_on: CYP1A2 (Homo sapiens, UniProt P05177)
Sequence (P05177 whole entry): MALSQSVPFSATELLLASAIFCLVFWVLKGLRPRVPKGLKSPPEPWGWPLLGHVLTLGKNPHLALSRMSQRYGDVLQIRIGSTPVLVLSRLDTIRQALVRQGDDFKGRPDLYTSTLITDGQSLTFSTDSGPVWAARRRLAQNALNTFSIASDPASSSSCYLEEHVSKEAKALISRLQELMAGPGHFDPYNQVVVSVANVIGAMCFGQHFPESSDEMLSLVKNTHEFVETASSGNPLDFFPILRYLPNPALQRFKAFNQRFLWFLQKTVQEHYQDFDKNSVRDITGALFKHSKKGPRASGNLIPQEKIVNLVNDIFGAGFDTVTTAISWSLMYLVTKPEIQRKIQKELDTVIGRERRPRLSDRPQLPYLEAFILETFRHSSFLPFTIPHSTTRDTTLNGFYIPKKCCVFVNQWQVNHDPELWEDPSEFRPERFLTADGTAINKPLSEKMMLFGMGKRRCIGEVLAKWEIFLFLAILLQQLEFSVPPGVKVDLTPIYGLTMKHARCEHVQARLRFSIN
procedure_summary: Inhibition of human CYP1A2 at 10 uM
Assay type: ADME
assay_readout: inhibition at 10 µM (%)
Give bare numbers, in %.

Lab note: O=C(Nc1ccc(F)cn1)c1cc[nH]n1 gave inhibition at 10 µM of 45

---

tested_on: CYP2B6 (Homo sapiens, UniProt P20813)
Sequence (P20813 whole entry): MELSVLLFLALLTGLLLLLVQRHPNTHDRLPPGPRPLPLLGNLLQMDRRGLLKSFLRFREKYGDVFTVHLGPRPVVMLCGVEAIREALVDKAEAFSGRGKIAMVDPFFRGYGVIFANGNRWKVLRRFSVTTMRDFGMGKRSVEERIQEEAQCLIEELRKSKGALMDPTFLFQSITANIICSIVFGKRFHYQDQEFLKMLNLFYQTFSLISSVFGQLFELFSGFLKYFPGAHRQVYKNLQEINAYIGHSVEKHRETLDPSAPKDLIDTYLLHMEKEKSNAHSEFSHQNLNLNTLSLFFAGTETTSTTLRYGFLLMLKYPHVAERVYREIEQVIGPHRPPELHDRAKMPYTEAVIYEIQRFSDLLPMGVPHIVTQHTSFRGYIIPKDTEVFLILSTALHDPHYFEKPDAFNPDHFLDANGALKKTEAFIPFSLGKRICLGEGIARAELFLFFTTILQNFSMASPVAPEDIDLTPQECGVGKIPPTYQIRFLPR
procedure_summary: Inhibition of human CYP2B6 at 10 uM
Assay type: ADME
assay_readout: inhibition at 10 µM (%)
One number for each entry, in %.

Lab note: O=C(Nc1ccc(Cl)cc1Cl)c1cn[nH]n1 gave inhibition at 10 µM of 93

Where these numbers come from: ChEMBL document CHEMBL3603736
